pIC50: −log10 of the molar value.
Here's a batch of molecules along with measured pIC50 for BTK (Homo sapiens (Human)).

Solved cases (2 shown):
molecule: C=CC(=O)Nc1cccc(-c2cc(-c3ccc(Oc4cc(C(F)(F)F)ccn4)cc3F)c(N)c3cncnc23)c1 [C187]
propertyName: pIC50
testValue: < 7.00
//
molecule: C=CC(=O)N1CCC(c2nc(-c3ccc(Oc4ccccn4)c(OC)c3)n3c(N)nccc23)C1 (stereo not drawn) [C212]
propertyName: pIC50
testValue: > 7.00

Next item in the queue.
Q) pIC50 lookup needed for C=CC(=O)Nc1cccc(-c2cc(-c3ccc(C(=O)Nc4cc(C(F)(F)F)ccn4)cc3Cl)cc3cncnc23)c1 [C116] , thanks.
A) > 7.00
